B1: C9orf9 (parent)
chain: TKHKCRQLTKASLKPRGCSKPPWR

# Variants of: B1
# ASSAY COMMENT: protein stability index of a GFP-peptide fusion (GPS, HEK-293T) (PSI 1-6); higher = more stable;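 further: lentivirally expressed fusions sorted by FACS into six bins by GFP to DsRed ratio, PSI derived from sequencing read proportions per bin multiplied by bin number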
# EXPERIMENTAL CONDITIONS: c terminus: a fixed tail appended
PARAMETER MEASURED: protein stability index
Form: value (number only, do not type unit).

Look up protein stability index of "TKHKCRQLTKASSKPRGCSKPPWR" and report it.
3.5

Look up protein stability index of "TKHKCRQLTFASLKPRGCSKPPWR" and report it.
2.58

Look up protein stability index of "TKHKCCQLTKASLKPRGCSKPPWR" and report it.
2.6

Look up protein stability index of "TKHKCRQLTKASLKPRGMSKPPWR" and report it.
2.58

Look up protein stability index of "TKHKCRPLTKASLKPRGCSKPPWR" and report it.
3.14

Look up protein stability index of "TKHKCRQYTKASLKPRGCSKPPWR" and report it.
2.35

Look up protein stability index of "TKHKCRQLTKASLKPRGCSLPPWR" and report it.
2.3

Look up protein stability index of "TKHKCRQLTKASLKPRGCSKPPWY" and report it.
2.59

Look up protein stability index of "TKHKCRQLTKASLIPRGCSKPPWR" and report it.
2.2

Look up protein stability index of "TKHKCRSLTKASLKPRGCSKPPWR" and report it.
3.27

Look up protein stability index of "TKHKCRQLTKASLKPRGCSKKPWR" and report it.
2.76

Look up protein stability index of "TKHKCRVLTKASLKPRGCSKPPWR" and report it.
1.97

Look up protein stability index of "TKHKCRQATKASLKPRGCSKPPWR" and report it.
3.21

Look up protein stability index of "TKHKCRQLTKAHLKPRGCSKPPWR" and report it.
2.35

Look up protein stability index of "YKHKCRQLTKASLKPRGCSKPPWR" and report it.
2.09

Look up protein stability index of "TKHKCRQLTKASLNPRGCSKPPWR" and report it.
3.41

Look up protein stability index of "TKHKCRQLTNASLKPRGCSKPPWR" and report it.
2.8

Look up protein stability index of "TKHKCRQLTKASLKPRGCSWPPWR" and report it.
1.94

Look up protein stability index of "TKHKCRNLTKASLKPRGCSKPPWR" and report it.
3.14

Look up protein stability index of "TKHKCRQLTKASLKPRGCSKPPWK" and report it.
3.63

Look up protein stability index of "TKHKCRQLTKASLKPRGYSKPPWR" and report it.
2.18

Look up protein stability index of "TKHKCRQLTKASLKGRGCSKPPWR" and report it.
3.41

Look up protein stability index of "TKHKCRQLTKASLPPRGCSKPPWR" and report it.
2.98

Look up protein stability index of "TKHKCRQLTKASLKRRGCSKPPWR" and report it.
3.93

Look up protein stability index of "TKHKCRQLTKASLYPRGCSKPPWR" and report it.
1.54

Look up protein stability index of "TKHKCRQLTKAWLKPRGCSKPPWR" and report it.
2.09

Look up protein stability index of "TKHKARQLTKASLKPRGCSKPPWR" and report it.
3.24

Look up protein stability index of "TKHKCRQLTKASLKPRGCGKPPWR" and report it.
2.21

Look up protein stability index of "TKHKCRQLTKASLTPRGCSKPPWR" and report it.
3.17

Look up protein stability index of "TKHKCRQLTKASLKPHGCSKPPWR" and report it.
2.6

Look up protein stability index of "TKHKCRQLTKASLKPRGCSKPPQR" and report it.
3.46

Look up protein stability index of "TKHKCRQLTKASLKPRGCSNPPWR" and report it.
2.95

Look up protein stability index of "TKHKCRQLTTASLKPRGCSKPPWR" and report it.
3.42

Look up protein stability index of "TKHKCRQLTMASLKPRGCSKPPWR" and report it.
2.38

Look up protein stability index of "TKHKCRQLTKASLKPRGCSKSPWR" and report it.
2.4

Look up protein stability index of "TKHKCRQLTKMSLKPRGCSKPPWR" and report it.
1.94

Look up protein stability index of "TKHKCRQLHKASLKPRGCSKPPWR" and report it.
2.47

Look up protein stability index of "TKHKCRQLTKASLKPRGCSKPPVR" and report it.
3.28

Look up protein stability index of "TKWKCRQLTKASLKPRGCSKPPWR" and report it.
2.42

Look up protein stability index of "TKHKCRQLTKASLDPRGCSKPPWR" and report it.
2.2

Look up protein stability index of "TKHKCRQLTKASLKPRGCSKPPPR" and report it.
4.18

Look up protein stability index of "TKHKCRQLWKASLKPRGCSKPPWR" and report it.
2.25

Look up protein stability index of "TKHKCRQLTKASLKPRGCSKPPCR" and report it.
2.89

Look up protein stability index of "TKHKCQQLTKASLKPRGCSKPPWR" and report it.
3.1

Look up protein stability index of "NKHKCRQLTKASLKPRGCSKPPWR" and report it.
3.18

Look up protein stability index of "TKHKCRQLTKASLKPRGCSDPPWR" and report it.
1.92

Look up protein stability index of "TKHLCRQLTKASLKPRGCSKPPWR" and report it.
1.72

Look up protein stability index of "TKHTCRQLTKASLKPRGCSKPPWR" and report it.
2.67

Look up protein stability index of "EKHKCRQLTKASLKPRGCSKPPWR" and report it.
2.52

Look up protein stability index of "TKHKCRQLTKASMKPRGCSKPPWR" and report it.
2.8

Look up protein stability index of "TKHKCRQLTIASLKPRGCSKPPWR" and report it.
2.73

Look up protein stability index of "TKHKCRQLTKASLKPRGCSKDPWR" and report it.
2.93

Look up protein stability index of "TKHKCRQLTKASLKPRGCKKPPWR" and report it.
2.37

Look up protein stability index of "TKHKCRQLTKASLKPRGCSKPDWR" and report it.
2.38

Look up protein stability index of "TKHKCRQLTKKSLKPRGCSKPPWR" and report it.
2.85

Look up protein stability index of "TKHKCRQLTKASLKPRGCSAPPWR" and report it.
2.41

Look up protein stability index of "TKHKCRQLTKQSLKPRGCSKPPWR" and report it.
2.16

Look up protein stability index of "TKHKCRQLTKASLKPRGCSKHPWR" and report it.
3.41

Look up protein stability index of "TKHKCRLLTKASLKPRGCSKPPWR" and report it.
1.29

Look up protein stability index of "TKHKCRQLTKARLKPRGCSKPPWR" and report it.
3.37

Look up protein stability index of "TKHKCRQLTKASLKPRGCSKPPDR" and report it.
4.3

Look up protein stability index of "TKHKCRQLTKASLKPRGCSKIPWR" and report it.
3.18

Look up protein stability index of "TKHKCRQLTKASLKPRGCSKPPMR" and report it.
3.05

Look up protein stability index of "TKHKCRQLTKASLKPRGCSKPPTR" and report it.
3.93

Look up protein stability index of "TKHKCRQLTKASLKPVGCSKPPWR" and report it.
3.76

Look up protein stability index of "TKHKCRQLTKASLKPRNCSKPPWR" and report it.
2.43

Look up protein stability index of "TKHKCRQLTKANLKPRGCSKPPWR" and report it.
3.19

Look up protein stability index of "TKHKCRQLTKASLKPRDCSKPPWR" and report it.
2.79

Look up protein stability index of "TKHKCRQLLKASLKPRGCSKPPWR" and report it.
2.17

Look up protein stability index of "TKHRCRQLTKASLKPRGCSKPPWR" and report it.
2.45

Look up protein stability index of "TKHKCRQLTWASLKPRGCSKPPWR" and report it.
2.46

Look up protein stability index of "TKHKCRRLTKASLKPRGCSKPPWR" and report it.
2.56

Look up protein stability index of "DKHKCRQLTKASLKPRGCSKPPWR" and report it.
3.22

Look up protein stability index of "TKHKCRDLTKASLKPRGCSKPPWR" and report it.
4.68

Look up protein stability index of "TKHKCRQLTKAMLKPRGCSKPPWR" and report it.
1.54

Look up protein stability index of "TKHKCMQLTKASLKPRGCSKPPWR" and report it.
2.19

Look up protein stability index of "TKHKCRQLTKASLKPRGCSMPPWR" and report it.
1.76

Look up protein stability index of "TKHKCRQLTKASLKPRGCSEPPWR" and report it.
2.41

Look up protein stability index of "TKHKCRQLTKASLKPNGCSKPPWR" and report it.
3.08

Look up protein stability index of "TKHKCRQLTKASCKPRGCSKPPWR" and report it.
3.26

Look up protein stability index of "TKHKCRQLTKASLKPRGISKPPWR" and report it.
2.2

Look up protein stability index of "TDHKCRQLTKASLKPRGCSKPPWR" and report it.
3.81
